// binding signal lookup, one value per entry
Target: MBP-FoxP3dN (Mus musculus, UniProt Q99JB6 188-423)
Sequence: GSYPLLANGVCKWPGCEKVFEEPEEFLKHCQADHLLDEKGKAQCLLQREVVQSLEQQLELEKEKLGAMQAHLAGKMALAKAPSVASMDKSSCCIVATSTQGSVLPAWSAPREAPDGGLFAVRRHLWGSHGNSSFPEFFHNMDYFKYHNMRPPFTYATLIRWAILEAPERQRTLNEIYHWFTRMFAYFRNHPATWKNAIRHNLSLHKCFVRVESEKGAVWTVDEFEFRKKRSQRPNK
Assay: PD-seq (MBP pull-down with sequencing); 20 mM Tris-HCl pH 7.5, 100 mM NaCl, 1.5 mM MgCl2, 0.4 uM protein, 0.1 uM dsDNA library, 30 min, room temperature, amylose pull-down; high values mean tight binding
Conditions: protein: recombinant; tags: His6-MBP; chain copies: 2; dsDNA, one strand shown
Over roughly 16,000 sequences, “rpm ratio (pull-down/input)” has its median near 0.5; the highest 2% begin near 5.5. Only a selection was taken, and the highest values are over-represented in it overall.

sequence_text: GATGATTGTTCTCCCAGCTGATGAATTTATTTTCTCGAGTAAACAAATTTTCCTAATCTTTCTGTTCAAGCGCCATCTAC
binding signal: 5.54 RPM ratio (pull-down/input)

sequence_text: GATGATTGTTCTCCCAGCTGATGAATTTAGTTTCTCGAGTAAACAAATTTTCCTAATCTTTCTGTTCAAGCGCCATCTAC
binding signal: 2.13 RPM ratio (pull-down/input)

sequence_text: GATGATTGTTCTCCCAGCTGATGAATTAGGATGTTCGAGTAAACAAATTTTCCTAATCTTTCTGTTCAAGCGCCATCTAC
binding signal: 0.82 RPM ratio (pull-down/input)

sequence_text: GATGATTGTTCTCCCAGCTGATGAATTTTTTGACTCGAGTAAACAAATTTTCCTAATCTTTCTGTTCAAGCGCCATCTAC
binding signal: 0.273 RPM ratio (pull-down/input)

====

// binding signal lookup, one value per entry
Biological target: MBP-FoxP3dN (Mus musculus, UniProt Q99JB6 188-423)
Sequence: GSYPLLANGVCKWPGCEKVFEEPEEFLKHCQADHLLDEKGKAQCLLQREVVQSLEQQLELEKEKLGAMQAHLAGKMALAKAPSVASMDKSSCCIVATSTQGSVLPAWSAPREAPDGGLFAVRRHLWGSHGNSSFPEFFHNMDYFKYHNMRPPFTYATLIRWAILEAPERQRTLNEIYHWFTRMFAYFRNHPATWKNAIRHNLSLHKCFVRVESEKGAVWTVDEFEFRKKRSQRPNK
Assay: PD-seq (MBP pull-down with sequencing); 20 mM Tris-HCl pH 7.5, 100 mM NaCl, 1.5 mM MgCl2, 0.4 uM protein, 0.1 uM dsDNA library, 30 min, room temperature, amylose pull-down; high values mean tight binding
Settings: protein: recombinant; tags: His6-MBP; chain copies: 2; dsDNA, one strand shown
The full ranking holds about 16,000 sequences; the median of “rpm ratio (pull-down/input)” is about 0.5, and the highest 2% start at about 5.5. The sample as a whole holds a higher share of the highest values than the screen did.

sequence_text: GATGATTGTTCTCCCAGCTGATGAATTTTTGGGGTCGAGTAAACAAATTTTCCTAATCTTTCTGTTCAAGCGCCATCTAC
binding signal: 0.233 RPM ratio (pull-down/input)

sequence_text: GATGATTGTTCTCCCAGCTGATGAATTGTGTTGGTCGAGTAAACAAATTTTCCTAATCTTTCTGTTCAAGCGCCATCTAC
binding signal: 6.68 RPM ratio (pull-down/input)

sequence_text: GATGATTGTTCTCCCAGCTGATGAATTAGTTTTTTCGAGTAAACAAATTTTCCTAATCTTTCTGTTCAAGCGCCATCTAC
binding signal: 3.9 RPM ratio (pull-down/input)

sequence_text: GATGATTGTTCTCCCAGCTGATGAATTTTTGTTATCGAGTAAACAAATTTTCCTAATCTTTCTGTTCAAGCGCCATCTAC
binding signal: 2.29 RPM ratio (pull-down/input)

sequence_text: GATGATTGTTCTCCCAGCTGATGAATTCCTCGCTTCGAGTAAACAAATTTTCCTAATCTTTCTGTTCAAGCGCCATCTAC
binding signal: 0.285 RPM ratio (pull-down/input)

sequence_text: GATGATTGTTCTCCCAGCTGATGAATTTGTTATCTCGAGTAAACAAATTTTCCTAATCTTTCTGTTCAAGCGCCATCTAC
binding signal: 7.03 RPM ratio (pull-down/input)

sequence_text: GATGATTGTTCTCCCAGCTGATGAATTAGTTAGTTCGAGTAAACAAATTTTCCTAATCTTTCTGTTCAAGCGCCATCTAC
binding signal: 4.22 RPM ratio (pull-down/input)

sequence_text: GATGATTGTTCTCCCAGCTGATGAATTTTGTTGGTCGAGTAAACAAATTTTCCTAATCTTTCTGTTCAAGCGCCATCTAC
binding signal: 7.07 RPM ratio (pull-down/input)

sequence_text: GATGATTGTTCTCCCAGCTGATGAATTCTGTTGGTCGAGTAAACAAATTTTCCTAATCTTTCTGTTCAAGCGCCATCTAC
binding signal: 5.56 RPM ratio (pull-down/input)

sequence_text: GATGATTGTTCTCCCAGCTGATGAATTCTGTAGGTCGAGTAAACAAATTTTCCTAATCTTTCTGTTCAAGCGCCATCTAC
binding signal: 0.948 RPM ratio (pull-down/input)

sequence_text: GATGATTGTTCTCCCAGCTGATGAATTCTTTAGTTCGAGTAAACAAATTTTCCTAATCTTTCTGTTCAAGCGCCATCTAC
binding signal: 0.297 RPM ratio (pull-down/input)

sequence_text: GATGATTGTTCTCCCAGCTGATGAATTTCTTTGGTCGAGTAAACAAATTTTCCTAATCTTTCTGTTCAAGCGCCATCTAC
binding signal: 1.03 RPM ratio (pull-down/input)

sequence_text: GATGATTGTTCTCCCAGCTGATGAATTATCGTATTCGAGTAAACAAATTTTCCTAATCTTTCTGTTCAAGCGCCATCTAC
binding signal: 1.35 RPM ratio (pull-down/input)

sequence_text: GATGATTGTTCTCCCAGCTGATGAATTCGTTAGTTCGAGTAAACAAATTTTCCTAATCTTTCTGTTCAAGCGCCATCTAC
binding signal: 2.91 RPM ratio (pull-down/input)

sequence_text: GATGATTGTTCTCCCAGCTGATGAATTTGTTAGTTCGAGTAAACAAATTTTCCTAATCTTTCTGTTCAAGCGCCATCTAC
binding signal: 7.44 RPM ratio (pull-down/input)

sequence_text: GATGATTGTTCTCCCAGCTGATGAATTGTTTGGGTCGAGTAAACAAATTTTCCTAATCTTTCTGTTCAAGCGCCATCTAC
binding signal: 4.43 RPM ratio (pull-down/input)

sequence_text: GATGATTGTTCTCCCAGCTGATGAATTCATAGGCTCGAGTAAACAAATTTTCCTAATCTTTCTGTTCAAGCGCCATCTAC
binding signal: 0.321 RPM ratio (pull-down/input)

sequence_text: GATGATTGTTCTCCCAGCTGATGAATTGTTGTTATCGAGTAAACAAATTTTCCTAATCTTTCTGTTCAAGCGCCATCTAC
binding signal: 6.7 RPM ratio (pull-down/input)

sequence_text: GATGATTGTTCTCCCAGCTGATGAATTCTTTTGGTCGAGTAAACAAATTTTCCTAATCTTTCTGTTCAAGCGCCATCTAC
binding signal: 0.31 RPM ratio (pull-down/input)

sequence_text: GATGATTGTTCTCCCAGCTGATGAATTAGTTTCTTCGAGTAAACAAATTTTCCTAATCTTTCTGTTCAAGCGCCATCTAC
binding signal: 2.72 RPM ratio (pull-down/input)

sequence_text: GATGATTGTTCTCCCAGCTGATGAATTTGGTTGGTCGAGTAAACAAATTTTCCTAATCTTTCTGTTCAAGCGCCATCTAC
binding signal: 2.96 RPM ratio (pull-down/input)

sequence_text: GATGATTGTTCTCCCAGCTGATGAATTCTGGGGGTCGAGTAAACAAATTTTCCTAATCTTTCTGTTCAAGCGCCATCTAC
binding signal: 0.456 RPM ratio (pull-down/input)

sequence_text: GATGATTGTTCTCCCAGCTGATGAATTGGTTGTGTCGAGTAAACAAATTTTCCTAATCTTTCTGTTCAAGCGCCATCTAC
binding signal: 5.42 RPM ratio (pull-down/input)

sequence_text: GATGATTGTTCTCCCAGCTGATGAATTAGTTGTTTCGAGTAAACAAATTTTCCTAATCTTTCTGTTCAAGCGCCATCTAC
binding signal: 6.61 RPM ratio (pull-down/input)

sequence_text: GATGATTGTTCTCCCAGCTGATGAATTGTTAGTTTCGAGTAAACAAATTTTCCTAATCTTTCTGTTCAAGCGCCATCTAC
binding signal: 4.23 RPM ratio (pull-down/input)

sequence_text: GATGATTGTTCTCCCAGCTGATGAATTTCCACGTTCGAGTAAACAAATTTTCCTAATCTTTCTGTTCAAGCGCCATCTAC
binding signal: 0.311 RPM ratio (pull-down/input)

sequence_text: GATGATTGTTCTCCCAGCTGATGAATTTAGACCGTCGAGTAAACAAATTTTCCTAATCTTTCTGTTCAAGCGCCATCTAC
binding signal: 0.5 RPM ratio (pull-down/input)

sequence_text: GATGATTGTTCTCCCAGCTGATGAATTGAGGCCGTCGAGTAAACAAATTTTCCTAATCTTTCTGTTCAAGCGCCATCTAC
binding signal: 0.905 RPM ratio (pull-down/input)

sequence_text: GATGATTGTTCTCCCAGCTGATGAATTGTTATTATCGAGTAAACAAATTTTCCTAATCTTTCTGTTCAAGCGCCATCTAC
binding signal: 5.54 RPM ratio (pull-down/input)

Values compiled from paper PMC12820563.
